- Test system: hCMV1 AD169
- ASSAY_SUMMARY: Primary CPE reduction assay in HFF cells, hCMV AD169
- Type: cell-based, human Cytomegalovirus
- APPLIED_CONDITIONS: hCMV1 AD169, HFF cells
- Experimental: Screening Assays for HSV-1, HSV-2, CMV, and VZV Cells. Human foreskin fibroblast (HFF) cells were prepared from human foreskin tissue. […] The media was then replaced with fresh Clinical Medium and the cell growth was monitored daily until a confluent monolayer has formed. […] Primary Cytopathic Effect (CPE) Reduction Assay. Low passage (3-10) HFF cells were trypsinized, counted, and seeded into 96 well tissue culture plates in 0.1 ml of MEM supplemented with 10% FBS. […]
REPORTED_PROPERTY: TI (therapeutic index derived from EC50/CC50)

Inquiry: Would you mind telling me what TI (therapeutic index derived from EC50/CC50) value was observed for N.Nc1ccn(C[C@@H](CO)OCP(=O)(O)OCCCS(=O)(=O)CCCCCCCCCCC2CCC2)c(=O)n1 ?
Reply text: 74

Inquiry: Would you mind telling me what TI (therapeutic index derived from EC50/CC50) value was observed for N.Nc1ccn(C[C@@H](CO)OCP(=O)(O)OCCCS(=O)(=O)CCCCCCCCCCCCCC2CCC2)c(=O)n1 ?
Reply text: >19

Inquiry: Would you mind telling me what TI (therapeutic index derived from EC50/CC50) value was observed for N.Nc1ccn(C[C@@H](CO)OCP(=O)(O)OCCCS(=O)(=O)CCCCCCCCCCCCC2CCC2)c(=O)n1 ?
Reply text: >19

Inquiry: Would you mind telling me what TI (therapeutic index derived from EC50/CC50) value was observed for Nc1nc(O)c2ncn(COC(CO)CO)c2n1 [Ganciclovir, reference compound] ?
Reply text: >92

Inquiry: Would you mind telling me what TI (therapeutic index derived from EC50/CC50) value was observed for CCCCCCCCCCCCCCCCCCS(=O)(=O)CCCOP(=O)(OCCCS(=O)(=O)CCCCCCCCCCCCCCCCCC)C(=O)OCC ?
Reply text: >1

Inquiry: Would you mind telling me what TI (therapeutic index derived from EC50/CC50) value was observed for CC1(CCCCCCCCCCCCS(=O)(=O)CCCOP(=O)(O)CO[C@H](CO)Cn2cnc(N)cc2=O)COC1 ?
Reply text: 184

Inquiry: Would you mind telling me what TI (therapeutic index derived from EC50/CC50) value was observed for CCOC(=O)P(=O)(OCCCS(=O)(=O)CCCCCCCC1(C)COC1)OCCCS(=O)(=O)CCCCCCCC1(C)COC1 ?
Reply text: 1

Inquiry: Would you mind telling me what TI (therapeutic index derived from EC50/CC50) value was observed for CCOC(=O)P(=O)(OCCCS(=O)(=O)CCCCC1CCC1)OCCCS(=O)(=O)CCCCC1CCC1 ?
Reply text: <3

Inquiry: Would you mind telling me what TI (therapeutic index derived from EC50/CC50) value was observed for N.Nc1ccn(C[C@@H](CO)OCP(=O)(O)OCCCS(=O)(=O)CCCCCCCCCCCCCCC2CCC2)c(=O)n1 ?
Reply text: >5
